Data provenance: patent US20260042764A1

# Tested on: GP2d cells (KRAS G12D)
# Run description: Cell-based pERK HTRF assay in GP2d cell (Biological Example 2)
# Conditions: GP2d, GP2d (KRAS G12D) cells, pERK HTRF

Compound	IC50
CN(C)C(=O)[C@@H]1CN(c2nc(OC[C@@]34CCCN3C[C@H](F)C4)nc3c(F)c(-c4ccc(F)c5sc(N)c(C#N)c45)c(C(F)(F)F)cc23)CCO1 [Compound 472]	< 0.1 µM
CCN(c1nc(OC[C@@]23CCCN2C[C@H](F)C3)nc2c(F)c(-c3ccc(F)c4sc(N)c(C#N)c34)c(C(F)(F)F)cc12)[C@H]1CC(=O)N(C2CC2)C1 [Compound 496]	< 0.1 µM
CCN(c1nc(OC[C@@]23CCCN2C[C@H](F)C3)nc2c(F)c(-c3ccc(F)c4sc(N)c(C#N)c34)c(C(F)(F)F)cc12)[C@H]1CCN(C(=O)N(C)C)C1 [Compound 395]	< 0.1 µM
N#Cc1c(N)sc2c(F)ccc(-c3c(C(F)(F)F)cc4c(N5C[C@@H]6C[C@H]5CS6(=O)=O)nc(OC[C@@]56CCCN5C[C@H](F)C6)nc4c3F)c12 [Compound 319]	0.1 to 1 µM
CCN(c1nc(OC[C@@]23CCCN2C[C@H](F)C3)nc2c(F)c(-c3ccc(F)c4sc(N)c(C#N)c34)c(C(F)(F)F)cc12)[C@H]1C[C@H](C)N(C(C)=O)C1 [Compound 463]	< 0.1 µM

---

# Test system: Avi-KRAS G12V (2-169) GTP/RAF1 RBD-3xFLAG (51-131) (Homo sapiens, UniProt P01116, G12V)
# Construct: Avi-KRAS G12V (2-169)
# Sequence (P01116 2-169 isoform P01116-2 G12V): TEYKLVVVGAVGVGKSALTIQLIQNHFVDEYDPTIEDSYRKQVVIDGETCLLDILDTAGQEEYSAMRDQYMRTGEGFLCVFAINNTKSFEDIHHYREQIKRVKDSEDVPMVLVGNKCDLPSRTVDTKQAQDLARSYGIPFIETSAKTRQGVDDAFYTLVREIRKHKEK
# Run description: Raf1-KRAS G12V-GTP disruption HTRF assay (Biological Example 3)
# Format: binding
# Conditions: KRAS G12V, GTP-loaded

Molecule	IC50
CCN(c1nc(OCC23CCCN2CC(F)C3)nc2c(F)c(-c3ccc(F)c4sc(N)c(C#N)c34)c(C(F)(F)F)cc12)C1CCN(C(=O)c2cnc(C#N)s2)C1 (centres unmarked)	0.1 to 1 µM
CC(=O)N1CC[C@H](N(c2nc(OC[C@@]34CCCN3C[C@H](F)C4)nc3c(F)c(-c4ccc(F)c5sc(N)c(C#N)c45)c(C(F)(F)F)cc23)C2CC2)C1 (atropisomer, axis not shown)	0.1 to 1 µM
CCN(c1nc(OC[C@@]23CCCN2C[C@H](F)C3)nc2c(F)c(-c3ccc(F)c4sc(N)c(C#N)c34)c(C(F)(F)F)cc12)[C@H]1C[C@H](C)N(C(=O)C2C[C@H]2F)C1 (some centres unmarked)	≤ 0.1 µM
CCN(c1nc(OC[C@@]23CCCN2C[C@H](F)C3)nc2c(F)c(-c3ccc(F)c4sc(N)c(C#N)c34)c(C(F)(F)F)cc12)[C@H]1CCN(C(=O)[C@H]2C[C@H](F)C2)C1 (atropisomer, axis not shown)	0.1 to 1 µM
CN(C)C(=O)c1nn2c(c1Cl)CN(c1nc(OC[C@@]34CCCN3C[C@H](F)C4)nc3c(F)c(-c4ccc(F)c5sc(N)c(C#N)c45)c(C(F)(F)F)cc13)CC2	0.1 to 1 µM

---

# Test system: Avi-KRAS G12R (1-169) GppNHp/RAF1 RBD-3xFLAG (52-151) (Homo sapiens, UniProt P01116, G12R)
# Construct: Avi-KRAS G12R (1-169)
# Sequence (P01116 1-169 isoform P01116-2 G12R): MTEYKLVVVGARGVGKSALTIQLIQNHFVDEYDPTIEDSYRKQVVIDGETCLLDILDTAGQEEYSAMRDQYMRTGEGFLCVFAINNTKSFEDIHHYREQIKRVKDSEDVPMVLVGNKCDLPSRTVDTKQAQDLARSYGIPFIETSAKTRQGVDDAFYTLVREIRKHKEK
# Run description: Raf1-KRAS G12R-GppNHP disruption HTRF assay (Biological Example 1)
# Format: binding
# Conditions: KRAS G12R, GppNHp-loaded; class symbols
pIC50: −log10 of the molar value.
Listed next: entries and their corresponding pIC50.
Experimental endpoint: pIC50

Compound	Measured result
CCN(c1nc(OC[C@@]23CCCN2C[C@H](F)C3)nc2c(F)c(-c3ccc(F)c4sc(N)c(C#N)c34)c(C(F)(F)F)cc12)[C@H]1C[C@H](C)N(C(=O)N2CC(OC)C2)C1 (atropisomer, axis not shown) [Compound 764]	> 7.00
CCN(c1nc(OC[C@@]23CCCN2C[C@H](F)C3)nc2c(F)c(-c3ccc(F)c4sc(N)c(C#N)c34)c(C(F)(F)F)cc12)[C@H]1CCN(C(=O)c2ccncn2)C1 (atropisomer, axis not shown) [Compound 730]	> 7.00
CCN(c1nc(OC[C@@]23CCCN2C[C@H](F)C3)nc2c(F)c(-c3ccc(F)c4sc(N)c(C#N)c34)c(C(F)(F)F)cc12)[C@H]1CCN(C(=O)OC2CN(C(C)=O)C2)C1 (atropisomer, axis not shown) [Compound 721]	> 7.00
CCN(c1nc(OCC23CCCN2CC(F)C3)nc2c(F)c(-c3ccc(F)c4sc(N)c(C#N)c34)c(C(F)(F)F)cc12)C1CC(C)N(C(=O)N2CC(F)C2)C1 (stereo not shown) [Compound 759]	> 7.00
Cc1c(C(=O)N2CCOCC2)nn2c1CN(c1nc(OCC34CCCN3CC(F)C4)nc3c(F)c(-c4ccc(F)c5sc(N)c(C#N)c45)c(C(F)(F)F)cc13)CC2 (stereo not shown) [Compound 741]	6.00 to 7.00
CCN(c1nc(OC[C@@]23CCCN2C[C@H](F)C3)nc2c(F)c(-c3ccc(F)c4sc(N)c(C#N)c34)c(C(F)(F)F)cc12)[C@H]1CCN(C(=O)C2CCOCC2)C1 (atropisomer, axis not shown) [Compound 578]	> 7.00
CCN(c1nc(OC[C@@]23CCCN2C[C@H](F)C3)nc2c(F)c(-c3ccc(F)c4sc(N)c(C#N)c34)c(C(F)(F)F)cc12)[C@H]1CCN(C(=O)N(C)C)[C@@H]1C (atropisomer, axis not shown) [Compound 749]	> 7.00
CCN(C)C(=O)N1CC[C@H](N(CC)c2nc(OC[C@@]34CCCN3C[C@H](F)C4)nc3c(F)c(-c4ccc(F)c5sc(N)c(C#N)c45)c(C(F)(F)F)cc23)C1 (atropisomer, axis not shown) [Compound 582]	> 7.00
CCN(c1nc(OC[C@@]23CCCN2C[C@H](F)C3)nc2c(F)c(-c3ccc(F)c4sc(N)c(C#N)c34)c(C(F)(F)F)cc12)[C@H]1CCN(C(=O)O[C@@H]2CCOC2)C1 (atropisomer, axis not shown) [Compound 683]	> 7.00
CCN(c1nc(OC[C@@]23CCCN2C[C@H](F)C3)nc2c(F)c(-c3ccc(F)c4sc(N)c(C#N)c34)c(C(F)(F)F)cc12)[C@H]1CCN(C(=O)N2CC(OC)C2)C1 (atropisomer, axis not shown) [Compound 607]	> 7.00
Cc1ccc(CN(C)c2nc(OC[C@@]34CCCN3C[C@H](F)C4)nc3c(F)c(-c4ccc(F)c5sc(N)c(C#N)c45)c(C(F)(F)F)cc23)c(N)n1 (atropisomer, axis not shown) [Compound 736]	6.00 to 7.00
CCN(c1nc(OC[C@@]23CCCN2C[C@H](F)C3)nc2c(F)c(-c3ccc(F)c4sc(N)c(C#N)c34)c(C(F)(F)F)cc12)[C@H]1C[C@@H](COC)N(C(=O)N(C)C)C1 (atropisomer, axis not shown) [Compound 713]	6.00 to 7.00
CCc1c(C(=O)N(C)C)nn2c1CN(c1nc(OCC34CCCN3CC(F)C4)nc3c(F)c(-c4ccc(F)c5sc(N)c(C#N)c45)c(C(F)(F)F)cc13)CC2 (stereo not shown) [Compound 773]	6.00 to 7.00
CCN(c1nc(OC[C@@]23CCCN2C[C@H](F)C3)nc2c(F)c(-c3ccc(F)c4sc(N)c(C#N)c34)c(C(F)(F)F)cc12)[C@H]1C[C@H]2CCOC(=O)N2C1 (atropisomer, axis not shown) [Compound 664]	> 7.00
C=C(F)C(=O)N1CC[C@H](N(CC)c2nc(OC[C@@]34CCCN3C[C@H](F)C4)nc3c(F)c(-c4ccc(F)c5sc(N)c(C#N)c45)c(C(F)(F)F)cc23)C1 (atropisomer, axis not shown) [Compound 676]	> 7.00
N#Cc1c(N)sc2c(F)ccc(-c3c(C(F)(F)F)cc4c(N5CCn6nc(C(=O)N7CCOCC7)cc6C5)nc(OCC56CCCN5CC(F)C6)nc4c3F)c12 (stereo not shown) [Compound 646]	> 7.00

---

# Test system: Avi-KRAS G12C (2-169) GTP/RAF1 RBD-3xFLAG (51-131) (Homo sapiens, UniProt P01116, G12C)
# Construct: Avi-KRAS G12C (2-169)
# Sequence (P01116 2-169 isoform P01116-2 G12C): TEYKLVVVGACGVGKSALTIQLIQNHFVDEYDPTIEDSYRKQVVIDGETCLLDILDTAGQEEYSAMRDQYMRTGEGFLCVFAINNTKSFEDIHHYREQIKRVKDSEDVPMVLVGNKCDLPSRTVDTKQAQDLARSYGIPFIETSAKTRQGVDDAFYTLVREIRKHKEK
# Run description: Raf1-KRAS G12C-GTP disruption HTRF assay (Biological Example 3)
# Type: binding
# Conditions: KRAS G12C, GTP-loaded
Experimental endpoint: IC50

Molecule	Measured result
CCN(c1nc(OC[C@@]23CCCN2C[C@H](F)C3)nc2c(F)c(-c3ccc(F)c4sc(N)c(C#N)c34)c(C(F)(F)F)cc12)[C@H]1CC(=O)N(C)C1 (atropisomer, axis not shown)	100 to 1000 nM
CCN(c1nc(OC[C@@]23CCCN2C[C@H](F)C3)nc2c(F)c(-c3ccc(F)c4sc(N)c(C#N)c34)c(C(F)(F)F)cc12)[C@H]1C[C@H](C)N(C(=O)OC)C1 (atropisomer, axis not shown)	100 to 1000 nM
CCN(c1nc(OC[C@@]23CCCN2C[C@H](F)C3)nc2c(F)c(-c3ccc(F)c4sc(N)c(C#N)c34)c(C(F)(F)F)cc12)[C@@H]1CCN(c2ccccn2)C1	> 10000 nM
CC(=O)N1CC[C@H](N(CCF)c2nc(OC[C@@]34CCCN3C[C@H](F)C4)nc3c(F)c(-c4ccc(F)c5sc(N)c(C#N)c45)c(C(F)(F)F)cc23)C1 (atropisomer, axis not shown)	100 to 1000 nM
CN(Cc1ncco1)c1nc(OC[C@@]23CCCN2C[C@H](F)C3)nc2c(F)c(-c3ccc(F)c4sc(N)c(C#N)c34)c(C(F)(F)F)cc12 (atropisomer, axis not shown)	100 to 1000 nM
CCN(c1nc(OC[C@@]23CCCN2C[C@H](F)C3)nc2c(F)c(-c3ccc(F)c4sc(N)c(C#N)c34)c(C(F)(F)F)cc12)[C@H]1CC(=O)N2CCC[C@@H]12 (atropisomer, axis not shown; (aS))	≤ 100 nM
CCN(c1nc(OC[C@@]23CCCN2C[C@H](F)C3)nc2c(F)c(-c3ccc(F)c4sc(N)c(C#N)c34)c(C(F)(F)F)cc12)[C@H]1CCN(C(=O)c2ccc(C)s2)C1 (atropisomer, axis not shown)	100 to 1000 nM
CCN(c1nc(OC[C@@]23CCCN2C[C@H](F)C3)nc2c(F)c(-c3ccc(F)c4sc(N)c(C#N)c34)c(C(F)(F)F)cc12)[C@H]1C[C@H]2C[C@H](C)C(=O)N2C1 (atropisomer, axis not shown)	≤ 100 nM
N#Cc1c(N)sc2c(F)ccc(-c3c(C(F)(F)F)cc4c(N5CCCC(c6cccnc6)C5)nc(OC[C@@]56CCCN5C[C@H](F)C6)nc4c3F)c12 (stereo partly drawn)	> 10000 nM
